Test system: SK-OV-3
measurementNotes: Cytotoxicity against human SKOV3 cells
Format: functional
recordedConditions: read-out: ED50 (the source's name)
Measured EC50, listed per entry for reference.
Please reply with the bare figure in µg/mL and do not write the unit itself.

Recorded EC50, per entry:
C#C/C=C\CCCCCCCCCCCCCCC/C=C\CCCC/C=C\CCCCC#C[C@@H](O)C#CCCCCCC/C=C/[C@H](O)C#C : 2.2
C#C/C=C\CCCCCCCCCCCCCC/C=C\CCCC/C=C\CCCCc1cc(=O)cc(CCCCCC/C=C/C(O)C#C)o1 (stereo not given) : 0.7
C#C/C=C\CCCCCCCCCCCCCC/C=C\CCC/C=C/C(O)CCCCC#C[C@H](O)C#CCCCCCC/C=C/[C@H](O)C#C (stereo not given in full) : 1.9

Query compound follows.
input: Fill in reported EC50 for this entry: C#C/C=C\CCCCCCCCCCCCCC/C=C\CCCC/C=C\CCCCC#CC(=O)C#CCCCCCC/C=C/[C@H](O)C#C
output: 4.6

---

Tested on: HCT-15
measurementNotes: Cytotoxicity against human HCT15 cells
Type: functional
recordedConditions: read-out: ED50 (the source's name)
measure: EC50 (µg/mL)
Please reply with the bare figure in µg/mL and do not write the unit itself.

Recorded EC50, per entry:
C#C/C=C\CCCCCCCCCCCCCC/C=C\CCCC/C=C\CCCC/C=C\[C@@H](O)C#CCCCCCC/C=C/[C@H](O)C#C : 0.8
C#C/C=C\CCCCCCCCCCCCCC/C=C\CCCC/C=C\CCCCc1cc(=O)cc(CCCCCC/C=C/C(O)C#C)o1 (stereo not drawn) : 7.5

Query compound follows.
input: Fill in reported EC50 for this entry: C#CCCCCCCCCCCCCCCCC/C=C\CCCC/C=C\CC/C=C/C#C[C@@H](O)C#CCCCCCC/C=C/[C@H](O)C#C
output: 1.8

---

System: A549
measurementNotes: Cytotoxicity against human A549 cells
Format: functional
recordedConditions: read-out: ED50 (the source's name)
measure: EC50 (µg/mL)
Please reply with the bare figure in µg/mL and do not write the unit itself.

Recorded EC50, per entry:
C#C/C=C\CCCCCCCCCCCCCC/C=C\CCC/C=C/C(O)CCCCC#C[C@H](O)C#CCCCCCC/C=C/[C@H](O)C#C (some centres not stated) : 26.3
C#C/C=C\CCCCCCCCCCCCC/C=C\CCCC/C=C\CCCCC#C[C@@H](O)C#CCCCCCC/C=C/[C@H](O)C#C [NOR-3S,14S-PETROCORTYNE A] : 7.3
C#CCCCCCCCCCCCCCCCC/C=C\CCCC/C=C\CC/C=C/C#C[C@@H](O)C#CCCCCCC/C=C/[C@H](O)C#C : 24.5

input: Determine reported EC50 for C#C/C=C\CCCCCCCCCCCCCC/C=C\CCCC/C=C\CCCC/C=C\[C@@H](O)C#CCCCCCC/C=C/[C@H](O)C#C ; test system: A549.
output: 1.8

---

Test system: SK-OV-3
measurementNotes: Cytotoxicity against human SKOV3 cells
Type: functional
recordedConditions: read-out: ED50 (the source's name)
measure: EC50 (µg/mL)
Please reply with the bare figure in µg/mL and do not write the unit itself.

input: Fill in reported EC50 for this entry: C#CCCCCCCCCCCCCCCCC/C=C\CCCC/C=C\CC/C=C/C#C[C@@H](O)C#CCCCCCC/C=C/[C@H](O)C#C
output: 1.7

input: Fill in reported EC50 for this entry: C#C/C=C\CCCCCCCCCCCCCC/C=C\CCCC/C=C\CCCC/C=C\[C@@H](O)C#CCCCCCC/C=C/[C@H](O)C#C
output: 0.8

input: Fill in reported EC50 for this entry: C#C/C=C\CCCCCCCCCCCCCC/C=C\CCCC/C=C\CCCC(O)C#CC(O)C#CCCCCCC/C=C/[C@H](O)C#C (stereo partly specified)
output: 4.2

input: Fill in reported EC50 for this entry: C#CCCCCCCCCCCCCCCCC/C=C\CCCC/C=C\CCCCC#C[C@@H](O)C#CCCCCCC/C=C/[C@H](O)C#C
output: 1.5

input: Fill in reported EC50 for this entry: C#C/C=C\CCCCCCCCCCCCC/C=C\CCCC/C=C\CCCCC#C[C@@H](O)C#CCCCCCC/C=C/[C@H](O)C#C [NOR-3S,14S-PETROCORTYNE A]
output: 4.4

input: Fill in reported EC50 for this entry: C#C/C=C\CCCCCCCCCCCCC/C=C/C(=O)CCCC/C=C\CCCCC#C[C@@H](O)C#CCCCCCC/C=C/[C@H](O)C#C
output: 4.2

---

System: HCT-15
measurementNotes: Cytotoxicity against human HCT15 cells
Assay type: functional
recordedConditions: read-out: ED50 (the source's name)
measure: EC50 (µg/mL)
Please reply with the bare figure in µg/mL and do not write the unit itself.

Recorded EC50, per entry:
C#CCCCCCCCCCCCCCCCC/C=C\CCCC/C=C\CCCCC#C[C@@H](O)C#CCCCCCC/C=C/[C@H](O)C#C : 2.5
C#C/C=C\CCCCCCCCCCCCC/C=C\CCCC/C=C\CCCCC#C[C@@H](O)C#CCCCCCC/C=C/[C@H](O)C#C [NOR-3S,14S-PETROCORTYNE A] : 3.5
C#C/C=C\CCCCCCCCCCCCCC/C=C\CCC/C=C/C(O)CCCCC#C[C@H](O)C#CCCCCCC/C=C/[C@H](O)C#C (stereo partly drawn) : 5
C#C/C=C\CCCCCCCCCCCCCCC/C=C\CCCC/C=C\CCCCC#C[C@@H](O)C#CCCCCCC/C=C/[C@H](O)C#C : 1.7
C#C/C=C\CCCCCCCCCCCCC/C=C/C(=O)CCCC/C=C\CCCCC#C[C@@H](O)C#CCCCCCC/C=C/[C@H](O)C#C : 5.7

input: Determine reported EC50 for C#C/C=C\CCCCCCCCCCCCCC/C=C\CCCC/C=C\CCCC(O)C#CC(O)C#CCCCCCC/C=C/[C@H](O)C#C (stereo partly drawn) ; test system: HCT-15.
output: 12.9

---

Test system: A549
measurementNotes: Cytotoxicity against human A549 cells
Assay type: functional
recordedConditions: read-out: ED50 (the source's name)
Measured EC50, listed per entry for reference.

C#C/C=C\CCCCCCCCCCCCCCC(=O)CCCCC/C=C\CCCCC#CC(O)C#CCCCCCC/C=C/C(O)C#C (centres undefined) : > 10 µg/mL

input: Fill in reported EC50 for this entry: C#C/C=C\CCCCCCCCCCCCCC/C=C\CCCC/C=C\CCCC(O)C#CC(O)C#CCCCCCC/C=C/[C@H](O)C#C (some centres undefined)
output: > 30 µg/mL

input: Fill in reported EC50 for this entry: C#C/C=C\CCCCCCCCCCCCCC/C=C\CCCC/C=C\CCCCc1cc(=O)cc(CCCCCC/C=C/C(O)C#C)o1 (centres undefined)
output: > 10 µg/mL

input: Fill in reported EC50 for this entry: C#C/C=C\CCCCCCCCCCCCCCC/C=C\CCCC/C=C\CCCCC#C[C@@H](O)C#CCCCCCC/C=C/[C@H](O)C#C
output: 11.3 µg/mL

---

Measured EC50, listed per entry for reference.
System: A549
measurementNotes: Cytotoxicity against human A549 cells
Format: functional
recordedConditions: read-out: ED50 (the source's name)

Recorded EC50, per entry:
C#C/C=C\CCCCCCCCCCCCC/C=C/C(=O)CCCC/C=C\CCCCC#C[C@@H](O)C#CCCCCCC/C=C/[C@H](O)C#C : > 10 µg/mL
C#CCCCCCCCCCCCCCCCC/C=C\CCCC/C=C\CCCCC#C[C@@H](O)C#CCCCCCC/C=C/[C@H](O)C#C : > 10 µg/mL

Query compound follows.
input: Fill in reported EC50 for this entry: C#C/C=C\CCCCCCCCCCCCCC/C=C\CCCC/C=C\CCCCC#CC(=O)C#CCCCCCC/C=C/[C@H](O)C#C
output: > 30 µg/mL
